# assay.details: Inhibition of NS5A in HCV genotype 1a H77 infected in human HuH7 replicon cells assessed as reduction in viral replication after 3 days by luciferase reporter gene assay
measured.property: pEC50
The value called pEC50 is obtained by taking minus log10 of the concentration in mol/L.

Query string: Reported pEC50, compound COC(=O)N[C@H](C(=O)N1CCC[C@H]1c1ncc(-c2cc3c4c(c2)OCc2cc(-c5cnc([C@@H]6CCCN6C(=O)[C@@H](NC(=O)OC)C6CCOCC6)[nH]5)cc(c2-4)OC3)[nH]1)C1CCOCC1 : ____
Result string: 9.42

Query string: Could you share which pEC50 value was measured for COC(=O)N[C@H](C(=O)N1CCC[C@H]1c1ncc(-c2cc3c4c(c2)OCc2cc(-c5cnc([C@@H]6CCCN6C(=O)[C@@H](NC(=O)OC)[C@@H](C)OC)[nH]5)cc(c2-4)OC3)[nH]1)C(C)C ?
Result string: 10.06

Query string: Value lookup for pEC50; key = COC(=O)N[C@H](C(=O)N1CCC[C@H]1c1ncc(-c2cc3c4c(c2)OCc2cc(-c5cnc([C@@H]6CCCN6C(=O)[C@@H](NC(=O)OC)C6CCC6)[nH]5)cc(c2-4)OC3)[nH]1)C1CCC1
Result string: 10.28

Query string: # get_value(readout='pEC50', item= COC[C@H]1C[C@@H](c2ncc(-c3ccc4c(c3)COc3cc5c(ccc6nc([C@@H]7C[C@H](COC)CN7C(=O)[C@@H](NC(=O)OC)C(C)C)[nH]c65)cc3-4)[nH]2)N(C(=O)[C@@H](NC(=O)OC)C(C)C)C1 )
Result string: 10.62

Query string: Need pEC50 of COC(=O)N[C@H](C(=O)N1CCC[C@H]1c1ncc(-c2cc3c4c(ccc5cc(-c6cnc([C@@H]7CCCN7C(=O)[C@@H](NC(=O)OC)C(C)C)[nH]6)cc(c54)OC3)c2)[nH]1)C(C)C , thanks.
Result string: 10.20

Query string: # pEC50 lookup, item COC(=O)N[C@H](C(=O)N1[C@@H](C)CC[C@H]1c1nc2ccc3cc4c(cc3c2[nH]1)OCc1cc(-c2cnc([C@@H]3C[C@H](C)CN3C(=O)[C@H](NC(=O)OC)c3ccccc3)[nH]2)ccc1-4)C(C)C
Result string: 11.10

Query string: Given the entry COC(=O)N[C@H](C(=O)N1CCC[C@H]1c1ncc(-c2cc3c4c(c2)OCc2cc(-c5cnc([C@@H]6CCCN6C(=O)[C@@H](NC(=O)OC)C(C)C)[nH]5)cc(c2-4)OC3)[nH]1)C(C)C , report its measured pEC50.
Result string: 10.54

Query string: Report pEC50 for COC(=O)N[C@H](C(=O)N1CCC[C@H]1c1ncc(-c2ccc3c4ccc(-c5cnc([C@@H]6CCCN6C(=O)[C@@H](NC(=O)OC)C(C)C)[nH]5)cc4c4nccnc4c3c2)[nH]1)C(C)C please.
Result string: 9.28

Query string: GET /values?readout=pEC50&item= COC(=O)N[C@H](C(=O)N1CCC[C@H]1c1ncc(-c2ccc3c(c2)COc2cc4c(ccc5nc([C@@H]6C[C@H](C)CN6C(=O)[C@@H](NC(=O)OC)C(C)C)[nH]c54)cc2-3)[nH]1)C(C)C
Result string: 10.96

Query string: Can you share its pEC50? I mean this compound: COC(=O)N[C@H](C(=O)N1CCC[C@H]1c1ncc(-c2cc3ccc4cc(-c5cnc([C@@H]6CCCN6C(=O)[C@@H](NC(=O)OC)C(C)C)[nH]5)cc5c(=O)c(c2)c3c45)[nH]1)C(C)C
Result string: 9.66

---

# assay.details: Inhibition of NS5A in HCV genotype 4a ED43 infected in human HuH7 transient chimeric replicon cells assessed as reduction in viral replication after 3 days by luciferase reporter gene assay
Please respond with reported EC50 for every item in the list.
Please respond with the number in nM and leave the unit unwritten.

Query string: I would be grateful if you could share the reported EC50 for COC(=O)N[C@H](C(=O)N1CCC[C@H]1c1ncc(-c2ccc3c(c2)COc2cc4c(ccc5nc([C@@H]6CCCN6C(=O)[C@@H](NC(=O)OC)C(C)C)[nH]c54)cc2-3)[nH]1)C(C)C .
Result string: 0.008

Query string: Using the record for CCO[C@H]1C[C@@H](c2nc3ccc4cc5c(cc4c3[nH]2)OCc2cc(-c3cnc([C@@H]4CCCN4C(=O)[C@@H](NC(=O)OC)C(C)C)[nH]3)ccc2-5)N(C(=O)[C@@H](NC(=O)OC)C(C)C)C1 , report its EC50.
Result string: 0.02

Query string: Given the entry COC(=O)N[C@@H](C(=O)N1C[C@@H](C)C[C@H]1c1ncc(-c2cc3c4c(c2)OCc2cc(-c5cnc([C@@H]6C[C@H](C)CN6C(=O)[C@H](NC(=O)OC)c6ccccc6)[nH]5)cc(c2-4)OC3)[nH]1)c1ccccc1 , report its measured EC50.
Result string: 0.013

Query string: Please report the recorded EC50 for COC[C@H]1C[C@@H](c2nc3ccc4cc5c(cc4c3[nH]2)OCc2cc(-c3cnc([C@@H]4CC[C@H](C)N4C(=O)[C@@H](NC(=O)OC)C(C)C)[nH]3)ccc2-5)N(C(=O)[C@@H](NC(=O)OC)C(C)C)C1 .
Result string: 0.015

---

# assay.details: Inhibition of NS5A L31M mutant in HCV genotype 2a JFH1 infected in human HuH7 replicon cells assessed as reduction in viral replication after 3 days by luciferase reporter gene assay
pEC50: −log10 of the molar value.
# if value of pEC50 reaches 8, tag Fulfilled; if it stays below, tag Not fulfilled

Query string: # bool: pEC50 of COC(=O)N[C@H](C(=O)N1CCC[C@H]1c1ncc(-c2cc3c4c(c2)OCc2cc(-c5cnc([C@@H]6CCCN6C(=O)[C@@H](NC(=O)OC)C6CCOCC6)[nH]5)cc(c2-4)OC3)[nH]1)C(C)C >= 8
Result string: Fulfilled

Query string: Please tell me: is the compound COC(=O)N[C@H](C(=O)N1CCC[C@H]1c1ncc(-c2cc3c4c(c2)OCc2cc(-c5cnc([C@@H]6CCCN6C(=O)[C@H](NC(=O)OC)c6ccccc6)[nH]5)cc(c2-4)OC3)[nH]1)C1CCOCC1 at or over 8 in terms of pEC50?
Result string: Fulfilled

Query string: Decide: is the reported value of pEC50 for COC(=O)N[C@H](C(=O)N1CCC[C@H]1c1ncc(-c2cc3c4c(c2)OCc2cc(-c5cnc([C@@H]6CCCN6C(=O)[C@@H](NC(=O)OC)[C@@H](C)OC)[nH]5)cc(c2-4)OC3)[nH]1)C(C)C equal to or greater than 8?
Result string: Fulfilled

Query string: Could you please find out whether COC(=O)N[C@H](C(=O)N1CCC[C@H]1c1ncc(-c2cc3c4c(c2)OCc2cc(-c5cnc([C@@H]6CCCN6C(=O)[C@@H](NC(=O)OC)C6CCC6)[nH]5)cc(c2-4)OC3)[nH]1)C1CCC1 has pEC50 that meets 8 or exceeds it?
Result string: Not fulfilled

Query string: Is the recorded value of pEC50 equal to or greater than 8 for this compound? COC(=O)N[C@H](C(=O)N1CCC[C@H]1c1ncc(-c2cc3c4c(c2)OCc2cc(-c5cnc([C@@H]6CCCN6C(=O)[C@@H](NC(=O)OC)C6CCCC6)[nH]5)cc(c2-4)OC3)[nH]1)C1CCCC1
Result string: Not fulfilled

---

Kindly state EC50 for each of the entries shown.
# assay.details: Inhibition of NS5A L31M mutant in HCV genotype 2a JFH1 infected in human HuH7 replicon cells assessed as reduction in viral replication after 3 days by luciferase reporter gene assay
Number in nM, nothing else.

Query string: For COC(=O)N[C@@H](C(=O)N1CCC[C@H]1c1ncc(-c2cc3c4c(c2)OCc2cc(-c5cnc([C@@H]6CCCN6C(=O)[C@H](NC(=O)OC)c6ccccc6)[nH]5)cc(c2-4)OC3)[nH]1)c1ccccc1 , what is its reported EC50?
Result string: 0.145

Query string: Which EC50 is listed for COC(=O)N[C@H](C(=O)N1CCC[C@H]1c1ncc(-c2cc3c4c(c2)OCc2cc(-c5cnc([C@@H]6CCCN6C(=O)[C@H](NC(=O)OC)c6ccccc6)[nH]5)cc(c2-4)OC3)[nH]1)C(C)C ?
Result string: 0.6

Query string: Request the reported EC50 associated with COC(=O)N[C@H](C(=O)N1CCC[C@H]1c1ncc(-c2cc3c4c(c2)CCc2cc(-c5cnc([C@@H]6CCCN6C(=O)[C@@H](NC(=O)OC)C(C)C)[nH]5)cc(c2-4)CC3)[nH]1)C(C)C
Result string: 13.3

---

# assay.details: Inhibition of NS5A L31M mutant in HCV genotype 2a J6 (M31) infected in human HuH7 replicon cells assessed as reduction in viral replication after 3 days by luciferase reporter gene assay
measured.property: pEC50
By convention, pEC50 is the negative base-10 log of a molar concentration.

Query string: Which pEC50 reading was recorded for the compound COC(=O)N[C@H](C(=O)N1CCC[C@H]1c1ncc(-c2cc3c4c(c2)OCc2cc(-c5cnc([C@@H]6CCCN6C(=O)[C@@H](NC(=O)OC)C6CCOCC6)[nH]5)cc(c2-4)OC3)[nH]1)C1CCOCC1 ?
Result string: 9.48

Query string: # input compound: COC(=O)N[C@H](C(=O)N1C[C@@H](C)C[C@H]1c1nc2ccc3cc4c(cc3c2[nH]1)OCc1cc(-c2cnc([C@@H]3C[C@H](C)CN3C(=O)[C@H](NC(=O)OC)c3ccccc3)[nH]2)ccc1-4)C(C)C ; wanted: its pEC50
Result string: 10.35

Query string: Data request, read-out pEC50, for COC(=O)N[C@H](C(=O)N1CCC[C@H]1c1ncc(-c2ccc3c(c2)COc2cc4c(ccc5nc([C@@H]6CC[C@H](C)N6C(=O)[C@@H](NC(=O)OC)C(C)C)[nH]c54)cc2-3)[nH]1)C(C)C
Result string: 9.63

Query string: State the recorded pEC50 for this entry: COC(=O)N[C@H](C(=O)N1[C@@H](C)CC[C@H]1c1ncc(-c2ccc3c(c2)COc2cc4c(ccc5nc([C@@H]6CC[C@H](C)N6C(=O)[C@@H](NC(=O)OC)C(C)C)[nH]c54)cc2-3)[nH]1)C(C)C
Result string: 9.55

Query string: Give the measured pEC50 of COC(=O)N[C@@H](C(=O)N1[C@@H](C)CC[C@H]1c1ncc(-c2cc3c4c(c2)OCc2cc(-c5cnc([C@@H]6CC[C@H](C)N6C(=O)[C@H](NC(=O)OC)c6ccccc6)[nH]5)cc(c2-4)OC3)[nH]1)c1ccccc1 .
Result string: 8.74

Query string: Give its pEC50 value. Item: COC(=O)N[C@@H](C(=O)N1CCC[C@H]1c1ncc(-c2cc3c4c(c2)OCc2cc(-c5cnc([C@@H]6CCCN6C(=O)[C@H](NC(=O)OC)c6ccccc6)[nH]5)cc(c2-4)OC3)[nH]1)c1ccccc1
Result string: 9.62
